Tested on: breast line MDA468
EXPERIMENT SUMMARY: In vitro cell culture growth assay (MTS), MDA468
Type: cell-based, human
REPORTED CONDITIONS: Homo sapiens, 72 h, MDA468 cells, three days after drug treatment
METRIC NAME: IC50 (µM)
Numeric only. Scale: µM

Prompt line: Enter reported IC50 observed with breast line MDA468 for Cc1ncccc1C(=O)N1CCC(n2ncc3c(N4CCOCC4)nc(-c4ccc5[nH]ccc5c4)nc32)CC1
Response line: 2

Prompt line: breast line MDA468 / IC50 / O=CN1CCC(n2ncc3c(N4CCOCC4)nc(-c4ccc5[nH]ccc5c4)nc32)CC1 [Compound 251] : value?
Response line: 3

Prompt line: For the record CONC(=O)Nc1ccc(-c2nc(N3CCOCC3)c3cnn(C4CCN(Cc5ccccc5)CC4)c3n2)cc1 [Compound 532] , what value of IC50 is listed for breast line MDA468?
Response line: 0.16

Prompt line: Identify the measured IC50 of O=C(CCO)Nc1ccc(-c2nc(N3CCOCC3)c3cnn(-c4ccccc4)c3n2)cc1 for breast line MDA468.
Response line: 60

Prompt line: Find IC50 (breast line MDA468) for the entry O=C(Nc1ccc(-c2nc(N3CCOCC3)c3cnn(C4CCN(C(=O)OCc5ccccc5)CC4)c3n2)cc1)Nc1cccnc1
Response line: 0.3

Prompt line: Recorded IC50 for CNC(=O)Nc1ccc(-c2nc(N3CCOCC3)c3cnn(C4CCN(C(=O)c5ccc(C#N)cc5)CC4)c3n2)cc1 [Compound 614] with breast line MDA468, please?
Response line: 0.22

Prompt line: What reported IC50 corresponds to COC(=O)Nc1ccc(-c2nc(N3CCOCC3)c3cnn(C4CCN(C(=O)OC)CC4)c3n2)cc1 [Compound 740] on breast line MDA468?
Response line: 1.3

Prompt line: Provide value of IC50 for this record tested with breast line MDA468: CN(C)CC(=O)Nc1ccc(-c2nc(N3CCOCC3)c3cnn(-c4ccccc4)c3n2)cc1
Response line: 1.2

----------
TESTED TARGET: PI3K (Homo sapiens, UniProt P42336)
Sequence (P42336 whole entry): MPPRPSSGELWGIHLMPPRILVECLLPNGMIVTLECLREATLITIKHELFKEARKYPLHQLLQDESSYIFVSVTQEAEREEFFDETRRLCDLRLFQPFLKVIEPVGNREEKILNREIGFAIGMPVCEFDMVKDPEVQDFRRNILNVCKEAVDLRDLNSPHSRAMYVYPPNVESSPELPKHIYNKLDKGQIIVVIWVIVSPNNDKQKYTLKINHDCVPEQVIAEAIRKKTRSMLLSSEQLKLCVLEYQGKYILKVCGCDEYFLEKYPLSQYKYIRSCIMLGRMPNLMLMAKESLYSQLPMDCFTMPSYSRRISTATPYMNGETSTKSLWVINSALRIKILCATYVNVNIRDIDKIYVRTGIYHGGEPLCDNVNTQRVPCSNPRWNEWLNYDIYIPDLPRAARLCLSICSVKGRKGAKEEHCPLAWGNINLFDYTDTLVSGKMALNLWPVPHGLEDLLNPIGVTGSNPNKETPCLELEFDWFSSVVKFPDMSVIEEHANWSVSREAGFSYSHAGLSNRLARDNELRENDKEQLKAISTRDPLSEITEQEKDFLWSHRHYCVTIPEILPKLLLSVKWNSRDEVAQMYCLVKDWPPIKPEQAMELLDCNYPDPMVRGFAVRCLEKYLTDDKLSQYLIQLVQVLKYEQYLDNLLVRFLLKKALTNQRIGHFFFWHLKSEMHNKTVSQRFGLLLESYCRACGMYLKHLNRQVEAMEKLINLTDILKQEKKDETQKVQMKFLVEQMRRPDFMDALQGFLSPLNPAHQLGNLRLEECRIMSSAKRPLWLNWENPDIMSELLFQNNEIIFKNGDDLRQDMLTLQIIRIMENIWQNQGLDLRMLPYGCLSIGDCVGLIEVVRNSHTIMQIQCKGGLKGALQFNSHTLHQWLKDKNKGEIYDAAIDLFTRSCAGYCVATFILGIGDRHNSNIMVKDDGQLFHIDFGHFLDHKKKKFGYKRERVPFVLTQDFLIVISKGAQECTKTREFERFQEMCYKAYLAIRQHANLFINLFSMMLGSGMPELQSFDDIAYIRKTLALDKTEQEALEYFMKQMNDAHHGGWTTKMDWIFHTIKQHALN
Sequence (P27986 whole entry partner): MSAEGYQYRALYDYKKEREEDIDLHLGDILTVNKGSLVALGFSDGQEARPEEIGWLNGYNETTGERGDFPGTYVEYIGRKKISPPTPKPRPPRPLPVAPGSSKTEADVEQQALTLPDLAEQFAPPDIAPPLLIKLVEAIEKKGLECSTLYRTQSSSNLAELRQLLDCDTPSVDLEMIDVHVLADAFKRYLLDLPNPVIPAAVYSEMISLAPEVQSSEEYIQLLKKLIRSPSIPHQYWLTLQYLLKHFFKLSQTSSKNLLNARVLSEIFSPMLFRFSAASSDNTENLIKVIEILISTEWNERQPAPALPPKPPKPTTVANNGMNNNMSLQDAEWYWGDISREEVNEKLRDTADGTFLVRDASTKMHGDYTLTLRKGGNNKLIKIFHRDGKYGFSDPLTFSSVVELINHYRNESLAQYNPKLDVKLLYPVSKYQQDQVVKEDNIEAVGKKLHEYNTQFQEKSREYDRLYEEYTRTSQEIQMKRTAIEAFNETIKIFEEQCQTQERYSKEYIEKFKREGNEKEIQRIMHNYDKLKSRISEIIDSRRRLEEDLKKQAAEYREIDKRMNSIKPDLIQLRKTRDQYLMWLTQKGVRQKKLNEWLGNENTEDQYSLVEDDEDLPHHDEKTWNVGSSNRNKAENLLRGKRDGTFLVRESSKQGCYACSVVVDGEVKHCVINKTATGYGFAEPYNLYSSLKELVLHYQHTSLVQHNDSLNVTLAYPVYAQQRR
EXPERIMENT SUMMARY: Fluorescence polarization assay for PI3K
Type: biochemical
REPORTED CONDITIONS: PI3Kα; read-out: PI3Kα IC50
METRIC NAME: IC50 (nM)
Report only the number, with the unit nM understood.

Prompt line: Param item = CN(C)CC(=O)Nc1ccc(-c2nc(N3CCOCC3)c3cn[nH]c3n2)cc1 [Compound 281] ; retrieve measured IC50.
Response line: 2270

Prompt line: // lookup IC50 for CNC(=O)Nc1ccc(-c2nc(N3CCOCC3)c3cnn(C4CCN(C(=O)c5ccc(OC)cc5)CC4)c3n2)cc1 [Compound 609]
Response line: 54

Prompt line: Return reported IC50; argument: CCCNC(=O)Nc1ccc(-c2nc(N3CCOCC3)c3cnn(C4CCN(C(=O)OCCC)CC4)c3n2)cc1 [Compound 853]
Response line: 824

Prompt line: # IC50 lookup, item CC(C)OC(=O)N1CCC(n2ncc3c(N4CCOCC4)nc(-c4ccc(NC(=O)NCCO)cc4)nc32)CC1 [Compound 834]
Response line: 450

Prompt line: Item CC(C)C(=O)N1CCC(n2ncc3c(N4CCOCC4)nc(-c4ccc(NC(=O)NCCO)cc4)nc32)CC1 [Compound 823] has what recorded IC50?
Response line: 571

----------
TESTED TARGET: PI3K (Homo sapiens, UniProt P42336)
EXPERIMENT SUMMARY: Fluorescence polarization assay for PI3K
Type: biochemical
REPORTED CONDITIONS: PI3Kα; read-out: PI3Kα IC50
METRIC NAME: log10 of IC50 (log10 of the value in nM)
Recall that a logarithmic scale is used here: each number is log10 of IC50 in nM.

Prompt line: What value of log10 of IC50 has been reported for the following compound? CNC(=O)Nc1ccc(-c2nc(N3CCOCC3)c3cnn(C4CCN(C(=O)c5cccnc5)CC4)c3n2)c(F)c1 [Example 461]
Response line: 2.95

Prompt line: So what does the record say about log10 of IC50 for Nc1ccc(-c2nc(N3CCOCC3)c3cn[nH]c3n2)cc1 [Example 285] ?
Response line: 3.21

Prompt line: Please look up its log10 of IC50: O=C(N1CCOCC1)N1CCC(n2ncc3c(N4CCOCC4)nc(-c4ccc5[nH]ccc5c4)nc32)CC1 [Compound 121]
Response line: 3.33

Prompt line: Would you kindly share the measured log10 of IC50 for NC(=O)Nc1ccc(-c2nc(N3CCOCC3)c3cnn(C4CCN(C(=O)c5ccccc5)CC4)c3n2)cc1 [Example 382] ?
Response line: 1.93

Prompt line: Name the reported log10 of IC50 value associated with the compound CNC(=O)Nc1ccc(-c2nc(N3CCOCC3)c3cnn(C4CCN(C(=O)c5cnccc5C)CC4)c3n2)cc1 [Compound 663]
Response line: 2.36

Prompt line: What measured log10 of IC50 goes with Clc1ncccc1CN1CCC(n2ncc3c(N4CCOCC4)nc(-c4ccc5[nH]ccc5c4)nc32)CC1 [Compound 175] ?
Response line: 2.66

Prompt line: Return reported log10 of IC50; argument: CNC(=O)Nc1ccc(-c2nc(N3CCOCC3)c3cnn(C4CCN(Cc5ccc(C)cc5)CC4)c3n2)cc1 [Example 431]
Response line: 1.40

Prompt line: Which value of log10 of IC50 has been reported for CNC(=O)Nc1ccc(-c2nc(N3CCOCC3)c3cnn(C4CCN(C(=O)c5ccccc5OC)CC4)c3n2)cc1 [Compound 611] in the records?
Response line: 1.91

----------
System: breast line MDA468
EXPERIMENT SUMMARY: In vitro cell culture growth assay (MTS), MDA468
Type: cell-based, human
REPORTED CONDITIONS: Homo sapiens, 72 h, MDA468 cells, three days after drug treatment
METRIC NAME: pIC50
Keep it numeric: pIC50 is minus log10 of the concentration in mol/L.

Prompt line: I'd like to know its pIC50. The molecule in question is CC(C)(C)OC(=O)N1CCC(n2ncc3c(N4CCOCC4)nc(-c4ccc(NC(=O)Nc5cccnc5)cc4)nc32)CC1
Response line: 6.59

Prompt line: Entry under review: O=CNc1ccc(-c2nc(N3CCOCC3)c3cnn(C4CCN(Cc5ccccc5)CC4)c3n2)cc1 [Compound 231] . Reported pIC50?
Response line: 5.35

Prompt line: Fill in: pIC50 of CNC(=O)Nc1ccc(-c2nc(N3CCOCC3)c3cnn(C4CCN(C(=S)NC)CC4)c3n2)cc1 is ___
Response line: 7.30

Prompt line: Name the reported pIC50 value associated with the molecule CNC(=O)Nc1ccc(-c2nc(N3CCOCC3)c3cnn(C4CCN(C(=O)c5cccnc5)CC4)c3n2)cn1
Response line: 5.92

Prompt line: Quick check: pIC50 of Nc1cccc(-c2nc(N3CCOCC3)c3cnn(-c4ccccc4)c3n2)c1 ?
Response line: 5.00

Prompt line: What does the data say about its pIC50? Entry: O=C(Nc1ccc(-c2nc(N3CCOCC3)c3cnn(C4CCN(Cc5cccnc5)CC4)c3n2)cc1)Nc1ccccn1 [Compound 588]
Response line: 5.74

Prompt line: Tell me the measured pIC50 of CCONC(=O)Nc1ccc(-c2nc(N3CCOCC3)c3cnn(C4CCN(Cc5ccccc5)CC4)c3n2)cc1 [Example 287] , please.
Response line: 6.70

----------
Answer each item with its documented IC50.
Test system: breast line MDA468
EXPERIMENT SUMMARY: In vitro cell culture growth assay (MTS), MDA468
Format: cell-based, human
REPORTED CONDITIONS: Homo sapiens, 72 h, MDA468 cells, three days after drug treatment

Prompt line: For the compound O=C(Nc1ccc(-c2nc(N3CCOCC3)c3cnn(CC(F)(F)F)c3n2)cc1)Nc1cccnc1 , what IC50 is on record?
Response line: < 27 nM

Prompt line: // lookup IC50 for COC(=O)N1CCC(n2ncc3c(N4CCOCC4)nc(-c4ccc(NC(=O)Nc5cccnc5)cc4)nc32)CC1
Response line: < 27 nM

Prompt line: Returns the measured IC50 for the input compound. Input: O=C(Nc1ccncc1)Nc1ccc(-c2nc(N3CCOCC3)c3cnn(C4CCN(C(=O)c5cccnc5)CC4)c3n2)cc1
Response line: < 27 nM

Prompt line: Look up IC50: O=C(Nc1ccc(-c2nc(N3CCOCC3)c3cnn(C4CCN(C(=O)c5ccccc5)CC4)c3n2)cc1)Nc1cccnc1
Response line: < 27 nM

Prompt line: Give the measured IC50 of COC(=O)N1CCC(n2ncc3c(N4CCOCC4)nc(-c4ccc(NC(=O)Nc5ccc(F)nc5)cc4)nc32)CC1 .
Response line: < 88.5 nM

----------
Would you mind telling me the reported IC50 of each entry?
TESTED TARGET: PI3K (Homo sapiens, UniProt P42336)
EXPERIMENT SUMMARY: Fluorescence polarization assay for PI3K;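 further: PI3K kinase reaction on PIP2 with ATP, 30-60 min, product sensed by GST-GRP with red probe in fluorescence polarization (mP), controls without enzyme and at zero time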
Assay type: biochemical
REPORTED CONDITIONS: PI3Kα; read-out: PI3Kα IC50
A bare number is not enough; add the unit after it.

Prompt line: Dear colleague, I am looking for the recorded IC50 of the following molecule: c1ccc(-n2ncc3c(N4CCOCC4)nc(-c4ccc(N5CCOCC5)nc4)nc32)cc1 [Compound 131]
Response line: 1100 nM

Prompt line: Give the measured IC50 of CNC(=O)Nc1ccc(-c2nc(N3CCOCC3)c3cnn(C4CC[S+]([O-])CC4)c3n2)cc1 (centres unmarked) [Compound 868] .
Response line: 80 nM

Prompt line: Look up IC50 for this molecule: CCNC(=O)Nc1ccc(-c2nc(N3CCOCC3)c3cnn(C4CCN(CCCCO)CC4)c3n2)cc1 [Compound 745]
Response line: 550 nM

Prompt line: So what's the measured IC50 for this one? CNC(=O)Nc1ccc(-c2nc(N3CCOCC3)c3cnn([C@@H]4CCCNC4)c3n2)cc1 [Compound 875]
Response line: 46 nM

Prompt line: Consider the molecule shown here: CCOC(=O)N1CCC(n2ncc3c(N4CCOC[C@H]4C)nc(-c4ccc(NC(=O)NC)cc4)nc32)CC1 [Compound 888] What is its recorded IC50?
Response line: 1990 nM

Prompt line: Which value of IC50 has been reported for COC(=O)N1CCC(n2ncc3c(N4CCOCC4)nc(-c4ccc(NC(=O)Nc5cccnc5)cc4)nc32)CC1 [Compound 737] in the records?
Response line: 34 nM

Prompt line: May I ask what IC50 has been recorded for O=C(NCC(F)(F)F)Nc1ccc(-c2nc(N3CCOCC3)c3cnn(C4CCN(Cc5ccccc5)CC4)c3n2)cc1 [Compound 535] ?
Response line: 590 nM

Prompt line: What does the record list as IC50 for O=C(Nc1ccc(-c2nc(N3CCOCC3)c3cnn(C4CCN(C(=O)c5cccnc5)CC4)c3n2)cc1)Nc1cccnc1 [Compound 547] ?
Response line: 32 nM

Prompt line: Report IC50 for CNC(=O)Nc1ccc(-c2nc(N3CCOCC3)c3cnn(C4CCN(C(=O)c5ccc(Cl)cc5)CC4)c3n2)cc1 [Compound 608] please.
Response line: 42 nM

Prompt line: Name the recorded IC50 for Oc1cccc(-c2nc(N3CCOCC3)c3cnn(CCN4CCCCC4)c3n2)c1 [Compound 126] .
Response line: 60 nM

Prompt line: # query: IC50 of entry CNC(=O)Nc1ccc(-c2nc(N3CCOCC3)c3cnn(C4CCN(Cc5cnccc5OC)CC4)c3n2)cc1 [Compound 636]
Response line: 82 nM

Prompt line: Which value of IC50 has been reported for O=C(NCCF)Nc1cc(F)c(-c2nc(N3CCOCC3)c3cnn(C4CCN(C(=O)c5cccnc5)CC4)c3n2)cc1F [Compound 711] in the records?
Response line: 2980 nM

Prompt line: Dear colleague, I am looking for the recorded IC50 of the following molecule: O=C(Nc1ccc(-c2nc(N3CCOCC3)c3cnn(C4CCN(Cc5ccccc5)CC4)c3n2)cc1)C(F)(F)F [Compound 299]
Response line: 1900 nM

Prompt line: Quick one: IC50 of CNC(=O)Nc1ccc(-c2nc(N3CCOCC3)c3cnn(C4CCN(C(=O)N5CCN(C)CC5)CC4)c3n2)cc1 [Compound 578] ?
Response line: 71 nM

Prompt line: Consider the molecule CNC(=O)Nc1ccc(-c2nc(N3CCOCC3)c3cnn(C4CCN(Cc5cccc(C)c5)CC4)c3n2)cc1 [Compound 674] and give its measured IC50.
Response line: 42 nM

Prompt line: Fill in the blank: the reported IC50 of O=C(NCC1CC1)Nc1ccc(-c2nc(N3CCOCC3)c3cnn(C4CCN(Cc5ccccc5)CC4)c3n2)cc1 [Compound 508] is ____.
Response line: 384 nM

Prompt line: Fill blank: measured IC50 of the molecule CCn1nc(C#CCO)c2c(N3CCOCC3)nc(-c3ccc(NC(=O)Nc4cccnc4)cc3)nc21 [Compound 956] is ____.
Response line: 1.75 nM
